Source of measurements: paper PMC5540273

System: FGFR1;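 further: KINOMEscan kinase panel screen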
Conditions: concentration: 1 μM, replicates: in singlicate; n = 1
attribute_measured: %Inh (%)
Form entry: value (%) — number only.

For orientation, consider the following solved cases.
compound	assayed_target	readout_number
Nc1nccc2scc(-c3ccc4c(c3)CCN4C(=O)Cc3cc(F)ccc3F)c12	FGFR1	0
Fc1cccc(COc2ccc(Nc3ncnc4sc(-c5ccc[nH]5)cc34)cc2Cl)c1	FGFR1	0
O=C(Nc1ccccc1F)NC1CCN(c2ccnc(Nc3ccc(F)cc3)n2)C1 (stereo not shown)	FGFR1	0

Turning to the following compound.
I would be grateful if you could share the reported %Inh for FC(F)(F)c1ccc(-c2nn3ncccc3c2-c2ccnc(Nc3cccc(C(F)(F)F)c3)n2)cc1 . 33
